system under test: IDO1 (Homo sapiens, UniProt P14902)
Construct: endogenous in cells
Sequence (P14902 whole entry): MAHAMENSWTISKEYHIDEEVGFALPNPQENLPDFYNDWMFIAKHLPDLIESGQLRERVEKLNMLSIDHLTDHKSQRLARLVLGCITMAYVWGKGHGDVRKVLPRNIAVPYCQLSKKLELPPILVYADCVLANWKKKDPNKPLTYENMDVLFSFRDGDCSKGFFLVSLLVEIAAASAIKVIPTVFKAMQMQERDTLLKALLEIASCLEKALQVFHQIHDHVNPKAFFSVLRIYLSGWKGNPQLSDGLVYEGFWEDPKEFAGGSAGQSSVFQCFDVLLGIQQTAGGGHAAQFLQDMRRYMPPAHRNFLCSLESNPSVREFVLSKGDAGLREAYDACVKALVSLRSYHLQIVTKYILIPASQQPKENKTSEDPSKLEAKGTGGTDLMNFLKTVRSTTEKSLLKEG
test protocol: IDO1 cell-based assay (HeLa cells, IFNgamma-induced, N-formylkynurenine/L-tryptophan by RFMS)
recorded conditions: 10 ng/mL IFNgamma, 24 hours
pIC50: −log10 of the molar value.
Assignment: determine reported pIC50 for the given compounds.

CCC(NC(=O)c1ccc(Cl)cc1)[C@H]1[C@@H]2C[C@@H](Nc3cc(F)cc(F)c3[N+](=O)[O-])C[C@@H]21 (some centres unmarked) | 5.70 to 6.70

Report pIC50 for every entry below.
1. CCC(NC(=O)c1ccc(Cl)cc1)[C@H]1[C@@H]2C[C@@H](NC(=O)c3cnccn3)C[C@@H]21 (some centres unmarked)
2. CCC(NC(=O)c1ccc(Cl)cc1)[C@H]1[C@@H]2C[C@@H](Oc3ncnc4cc(Cl)ccc34)C[C@@H]21 (some centres unmarked) [Compound 253]

Reply |
1. > 6.70
2. > 6.70

Report pIC50 for every entry below.
1. CCC(NC(=O)c1ccc(Cl)cc1)[C@H]1[C@@H]2C[C@@H](n3ncc4cccnc43)C[C@@H]21 (some centres unmarked)
2. O=C(NC1C2CN(c3ccnc4ccc(F)cc34)CC21)C(O)c1ccc(Br)cc1 (centres unmarked)
3. CC[C@@H](NC(=O)c1ccc(Cl)cc1)[C@H]1[C@@H]2C[C@H](c3cncc(C4CC4)c3)C[C@@H]21
4. CC(NC(=O)c1ccc(C#N)cc1)C1[C@H]2CC(O)C[C@@H]12 (some centres unmarked) [Compound 105]
5. O=C(NC(CCO)[C@H]1[C@@H]2C[C@@H](n3ncc(=O)c4ccccc43)C[C@@H]21)c1ccc(Cl)cc1 (some centres unmarked)

Reply |
1. > 6.70
2. < 5.30
3. > 6.70
4. < 5.30
5. > 6.70

Report pIC50 for every entry below.
1. CC[C@@H](NC(=O)c1ccc(Cl)cc1)[C@H]1[C@@H]2C[C@@H](c3ncnc4ccc(F)cc34)C[C@@H]21
2. CCOCc1cn([C@H]2C[C@@H]3[C@H](C2)[C@H]3C(CC)NC(=O)c2ccc(Cl)cc2)nn1 (some centres unmarked)
3. CCC(NC(=O)c1ccc(OC)nc1)[C@H]1[C@@H]2C[C@@H](n3cnc4ccc(F)cc4c3=O)C[C@@H]21 (some centres unmarked)
4. CC[C@@H](NC(=O)c1ccc(Cl)cc1)[C@H]1[C@@H]2C[C@@H](Nc3ccccc3C(=O)O)C[C@@H]21
5. COC(=O)C(NC(=O)c1ccc(Cl)cc1)[C@H]1[C@@H]2C[C@@H](n3cc(C4CC4)nn3)C[C@@H]21 (some centres unmarked)
6. CC[C@@H](NC(=O)c1cccc(Cl)c1)[C@H]1[C@@H]2C[C@@H](n3cnc4cc(F)c(F)cc43)C[C@@H]21

Reply |
1: > 6.70; 2: > 6.70; 3: 5.70 to 6.70; 4: > 6.70; 5: 5.70 to 6.70; 6: > 6.70

Attribution: patent US11173145B2
